Test system: SF-268 CNS
Assay: NCI-60 one-dose screen, 48 h (100 = growth as untreated, 0 = no growth, -100 = all killed)
Conditions: 10 µM unless noted
This is part of a sample that, as a whole, favours compounds with a hit. Of some 83,000 tested, about 20% had one in any assay.
measurementName: growth (%)
Reply with just the number (in %).

Known results for molecules:
[[record]]
smilesrepr = "CN(C)CCCC(=O)Nc1ccc(Cn2nnc3c2C(=O)c2nnn(Cc4ccc(NC(=O)CCCN(C)C)cc4)c2C3=O)cc1"
studysystem = "SF-268 CNS"
valuereported = 80.6

[[record]]
smilesrepr = "COc1nc2c(cc1S(=O)(=O)c1ccccc1)CCc1c-2cnn1-c1ccc(Cl)cc1"
studysystem = "SF-268 CNS"
valuereported = 104

[[record]]
smilesrepr = "CCN(CC)CCC(=O)Nc1ccc(Cn2nnc3c2C(=O)c2nnn(Cc4ccc(NC(=O)CCN(CC)CC)cc4)c2C3=O)cc1"
studysystem = "SF-268 CNS"
valuereported = -38.1


Query block: Give the measured growth of `CC(=O)C1=C(O)C=C2Oc3c(C(=O)/C=C/c4ccccc4)c(O)c(C)c(O)c3[C@]2(C)C1=O` .
Result block: 35.2

Query block: Follow-up entry: `CCN(CC)Cc1cc(Nc2c3ccc(Cl)cc3nc3c(C)cccc23)ccc1O`
Result block: -79.8

Query block: Follow-up entry: `Cn1cc(-c2nc(-c3c[nH]c4ccccc34)cs2)c2cccnc21`
Result block: 52.4
